- target.under.test: histamine H4 receptor (Homo sapiens, UniProt Q9H3N8)
- assay: In vitro histamine H4 potency in FLIPR (Ca2+ flux, HEK-293 cells coexpressing Gαqi5)
- Format: cell-based
- Design: expressed in transfected cells
- applied.conditions: Kb for antagonists and inverse agonists, EC50 for partial agonists
- Sequence (Q9H3N8 whole entry): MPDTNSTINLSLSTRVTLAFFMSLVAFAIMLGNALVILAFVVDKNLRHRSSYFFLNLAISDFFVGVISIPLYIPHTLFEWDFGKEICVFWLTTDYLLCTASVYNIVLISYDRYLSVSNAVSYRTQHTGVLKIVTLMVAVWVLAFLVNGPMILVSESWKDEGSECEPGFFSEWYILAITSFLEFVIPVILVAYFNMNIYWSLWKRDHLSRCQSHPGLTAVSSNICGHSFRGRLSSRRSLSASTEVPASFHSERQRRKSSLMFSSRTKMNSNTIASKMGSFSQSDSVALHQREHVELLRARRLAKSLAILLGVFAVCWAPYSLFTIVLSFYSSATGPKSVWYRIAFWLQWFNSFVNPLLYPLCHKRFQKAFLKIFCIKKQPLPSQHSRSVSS
Returns t if the recorded Potency is greater than or equal to 0.1 µM, and f otherwise.

> print(dat)
                                   compound                         target.under.test  discrete.label
1  Nc1nc2c(c(N3C[C@@H]4C[C@H]3CN4)n1)CCCc1ccccc1-2  histamine H4 receptor (Homo sapiens, UniProt Q9H3N8)               t
2  CNCC(=O)Nc1nc2c(c(N3CCNCC3)n1)CCCc1ccccc1-2  histamine H4 receptor (Homo sapiens, UniProt Q9H3N8)               t
3  Nc1nc2c(c(N3CC[C@@H]4CNC[C@@H]43)n1)CCCc1ccccc1-2  histamine H4 receptor (Homo sapiens, UniProt Q9H3N8)               t
4      Nc1nc(OC2CCNCC2)c2c(n1)-c1ccccc1CCC2  histamine H4 receptor (Homo sapiens, UniProt Q9H3N8)               t
5  Nc1nc2c(c(N3CC4CCCNC4C3)n1)CCCc1ccccc1-2 (stereo not drawn)  histamine H4 receptor (Homo sapiens, UniProt Q9H3N8)               f

State whether the measured Potency reaches 0.1 µM, counting equality as reaching it, for CN[C@@H]1CCN(c2nc(N)nc3c2CCCCc2ccccc2-3)C1
f

----------
Record set of Ki for target or system histamine H4 receptor (Homo sapiens).
API: value field is a number in nM; no unit string.

Examples from the recorded data:
> print(dat)
                               smiles.input  unit.info  value.observed
1       CNC1CN(c2nc(N)nc3c2CCCc2ccccc2-3)C1         nM               4
2  CN[C@@H]1CCN(c2nc(N)nc3c2CCCc2ccccc2-3)C1         nM               5

Test system histamine H4 receptor (Homo sapiens); read-out Ki; what value for Nc1nc2c(c(N3CCNCC3)n1)CCCc1ccccc1-2 ?
8

----------
Each entry below carries its reported Potency.
- target.under.test: histamine H4 receptor (Homo sapiens, UniProt Q9H3N8)
- assay: In vitro histamine H4 potency in FLIPR (Ca2+ flux, HEK-293 cells coexpressing Gαqi5)
- Format: cell-based
- Set-up: expressed in transfected cells
- applied.conditions: Kb for antagonists and inverse agonists, EC50 for partial agonists
API: value field is a number in nM; no unit string.

Examples from the recorded data:
> print(dat)
                                   molecule  attribute.measured  value.observed
1  CN[C@@H]1CCN(c2nc(N)nc3c2CCOc2cc(C)ccc2-3)C1             Potency              39
2  CN[C@@H]1CCN(c2nc(N)nc3c2SCCc2ccccc2-3)C1             Potency              11
3  CNC1CN(c2nc(N)nc3c2CC[S+]([O-])c2ccccc2-3)C1 (stereo not shown)             Potency             537

Dear colleague, I am looking for the recorded Potency of the following molecule: Nc1nc2c(c(N3CCNCC3)n1)SCCc1ccccc1-2
87

----------
- target.under.test: histamine H4 receptor (Homo sapiens, UniProt Q9H3N8)
- assay: In vitro histamine H4 potency in FLIPR (Ca2+ flux, HEK-293 cells coexpressing Gαqi5)
- Format: cell-based
- Design: expressed in transfected cells
- applied.conditions: Kb for antagonists and inverse agonists, EC50 for partial agonists
attribute.measured: Potency (nM)
API: value field is a number in nM; no unit string.

> print(dat)
                                   compound  unit.info  value.observed
1  CN[C@@H]1CCN(c2nc(N)nc3c2CCOc2ccccc2-3)C1         nM              27
2  CC(=O)Nc1nc2c(c(N3CCNCC3)n1)CCCc1ccccc1-2         nM            2951
3       Nc1nc2c(c(N3CCNCC3)n1)CCCc1ccccc1-2         nM              15
4  Nc1nc2c(c(N3CC4CNCC3C4)n1)CCCc1ccccc1-2 (stereo not drawn)         nM            4169
5         CN(C)CCOc1nc(N)nc2c1CCCc1ccccc1-2         nM             219
6  CN[C@@H]1CCN(c2nc(N)nc3c2CCCCCc2ccccc2-3)C1         nM              56
7  CN[C@@H]1CCN(c2nc(N)nc3c2CCOc2c(C)cccc2-3)C1         nM              56
8  CN[C@@H]1CCN(c2nc(N)nc3c2CCOc2ccc(Cl)cc2-3)C1         nM              69

Dear colleague, I am looking for the recorded Potency of the following compound: Nc1nc2c(c(N3CC[C@H]4CNC[C@H]43)n1)CCCCCc1ccccc1-2
16596

----------
- target.under.test: histamine H4 receptor (Homo sapiens, UniProt Q9H3N8)
- assay: In vitro histamine H4 potency in FLIPR (Ca2+ flux, HEK-293 cells coexpressing Gαqi5)
- Type: cell-based
- Set-up: expressed in transfected cells
- applied.conditions: Kb for antagonists and inverse agonists, EC50 for partial agonists
Each entry below carries its reported Potency.
Don't forget the unit after the value.

> print(dat)
                                   molecule  value.observed
1  CN(C)CC(=O)Nc1nc2c(c(N3CCNCC3)n1)CCCc1ccccc1-2          174 nM
2  Nc1nc2c(c(N3CCC4CC3CN4)n1)CCCc1ccccc1-2 (stereo not drawn)         2042 nM

Now for another entry.
Dear colleague, I am looking for the recorded Potency of the following molecule: Nc1nc2c(c(N3CC[C@H]4CNC[C@H]43)n1)CCCc1ccccc1-2
269 nM

----------
- target.under.test: UniProtKB Q9H3N8
- assay: In vitro histamine H4 potency in FLIPR (Ca2+ flux, HEK-293 cells coexpressing Gαqi5)
- Assay type: cell-based
- Parameters: expressed in transfected cells
- applied.conditions: Kb for antagonists and inverse agonists, EC50 for partial agonists
attribute.measured: Potency (nM)
API: value field is a number in nM; no unit string.

Dear colleague, I am looking for the recorded Potency of the following compound: O=C(O)c1nc2c(c(N3CC4CCCNC4C3)n1)CCCc1ccccc1-2 (stereo not drawn)
11885

Can you check Nc1nc2c(c(N3CCNCC3)n1)CCSc1ccccc1-2 next?
39

Can you check c1ccc2c(c1)CCCc1c-2nc(N2CCNCC2)nc1N1CCNCC1 next?
351

----------
Each entry below carries its reported Potency.
- target.under.test: UniProt:Q9H3N8
- assay: In vitro histamine H4 potency in FLIPR (Ca2+ flux, HEK-293 cells coexpressing Gαqi5)
- Type: cell-based
- Parameters: expressed in transfected cells
- applied.conditions: Kb for antagonists and inverse agonists, EC50 for partial agonists
API: value field is a number in nM; no unit string.

Examples from the recorded data:
> print(dat)
                                   molecule  unit.info  value.observed
1  CN[C@@H]1CCN(c2nc(N)nc3c2CCOc2cc(Cl)ccc2-3)C1         nM              43
2  COC(=O)c1ccc2c(c1)OCCc1c-2nc(N)nc1N1CC2CCCNC2C1 (stereo not drawn)         nM              53
3  CN1CCCC(Oc2nc(N)nc3c2CCCc2ccccc2-3)C1 (stereo not drawn)         nM            3162
4  Nc1nc2c(c(N3CC4CCCNC4C3)n1)CCOc1cc(-c3cccnc3)ccc1-2 (stereo not drawn)         nM             140
5       CN1CCN(c2nc(N)nc3c2CCc2ccccc2-3)CC1         nM              13

Now for another entry.
Dear colleague, I am looking for the recorded Potency of the following molecule: CN[C@@H]1CCN(c2nc(N)nc3c2CCOc2cc(OC)ccc2-3)C1
56

----------
- target.under.test: histamine H4 receptor (Homo sapiens, UniProt Q9H3N8)
- assay: In vitro histamine H4 potency in FLIPR (Ca2+ flux, HEK-293 cells coexpressing Gαqi5)
- Format: cell-based
- Design: expressed in transfected cells
- applied.conditions: Kb for antagonists and inverse agonists, EC50 for partial agonists
Each entry below carries its reported Potency.
API: value field is a number in µM; no unit string.

Examples from the recorded data:
> print(dat)
                                   compound  value.observed
1   Nc1nc(NCCCN2CCCCC2)c2c(n1)-c1ccccc1CCC2           4.266
2  Nc1nc2c(c(N3C[C@@H]4CN[C@@H]4C3)n1)CCCc1ccccc1-2           0.603
3  NCC(=O)Nc1nc2c(c(N3CCNCC3)n1)CCCc1ccccc1-2           0.089
4  CN[C@@H]1CCN(c2nc(N)nc3c2S(=O)(=O)CCc2ccccc2-3)C1           1.413

Now for another entry.
Test system histamine H4 receptor (Homo sapiens, UniProt Q9H3N8); read-out Potency; what value for Nc1nc2c(c(N3CCNCC3)n1)CCCCCc1ccccc1-2 ?
5.623
